# tested system: Androgen Receptor (Homo sapiens, UniProt P10275+P40337, T878A)
# Construct: Compounds have been evaluated in this assay in LNCaP and/or VCaP cells utilizing similar protocols; endogenous in cells; host or cells: LNCaP cells
# Sequence (P10275 whole entry T878A): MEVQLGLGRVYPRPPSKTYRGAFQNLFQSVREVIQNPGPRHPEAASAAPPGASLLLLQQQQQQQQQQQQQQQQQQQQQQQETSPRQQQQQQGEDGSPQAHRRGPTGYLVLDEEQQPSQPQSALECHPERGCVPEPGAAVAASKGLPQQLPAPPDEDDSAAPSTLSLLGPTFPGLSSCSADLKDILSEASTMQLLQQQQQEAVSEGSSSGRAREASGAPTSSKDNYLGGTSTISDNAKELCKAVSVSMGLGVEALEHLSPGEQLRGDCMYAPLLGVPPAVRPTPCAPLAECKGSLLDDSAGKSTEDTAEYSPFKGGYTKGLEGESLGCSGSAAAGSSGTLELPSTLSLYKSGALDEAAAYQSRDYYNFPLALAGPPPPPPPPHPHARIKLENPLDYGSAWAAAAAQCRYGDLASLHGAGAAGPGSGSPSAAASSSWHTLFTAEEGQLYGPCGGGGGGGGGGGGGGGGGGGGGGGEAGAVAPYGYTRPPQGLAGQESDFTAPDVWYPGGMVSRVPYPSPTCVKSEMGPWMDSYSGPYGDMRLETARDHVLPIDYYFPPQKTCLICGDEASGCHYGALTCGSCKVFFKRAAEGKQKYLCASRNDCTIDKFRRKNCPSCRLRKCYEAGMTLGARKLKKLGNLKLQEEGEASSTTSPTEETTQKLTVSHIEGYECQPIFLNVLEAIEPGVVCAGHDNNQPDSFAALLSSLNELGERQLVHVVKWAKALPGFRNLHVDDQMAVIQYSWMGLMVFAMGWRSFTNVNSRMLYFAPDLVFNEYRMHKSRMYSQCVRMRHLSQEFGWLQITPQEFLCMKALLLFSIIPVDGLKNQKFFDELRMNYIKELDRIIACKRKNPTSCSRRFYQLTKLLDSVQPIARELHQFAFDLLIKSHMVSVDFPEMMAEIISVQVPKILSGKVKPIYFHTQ
# Sequence (P40337 whole entry): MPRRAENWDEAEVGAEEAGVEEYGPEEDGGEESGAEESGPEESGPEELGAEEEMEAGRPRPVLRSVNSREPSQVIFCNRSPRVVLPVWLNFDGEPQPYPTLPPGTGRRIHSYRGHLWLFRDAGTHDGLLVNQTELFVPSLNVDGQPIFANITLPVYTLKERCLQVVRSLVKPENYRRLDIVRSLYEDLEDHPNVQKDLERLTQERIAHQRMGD
# Sequence (Q15369 whole entry partner): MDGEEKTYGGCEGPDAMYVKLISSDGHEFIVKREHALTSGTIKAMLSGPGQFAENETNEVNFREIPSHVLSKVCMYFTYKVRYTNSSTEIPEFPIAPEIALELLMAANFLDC
# Sequence (Q15370 whole entry partner): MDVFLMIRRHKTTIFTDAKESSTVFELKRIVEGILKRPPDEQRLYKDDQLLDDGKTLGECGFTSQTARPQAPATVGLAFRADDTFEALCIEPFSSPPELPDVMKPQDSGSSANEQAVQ
# assay details: Androgen Receptor ELISA assay (PathScan AR ELISA) in LNCaP cells: AR degradation, Dmax and DC50
# Type: cell-based
# study conditions: concentration that caused 50% Androgen Receptor degradation
outcome measure: DC50

Which measured DC50 value corresponds to Cc1ncsc1-c1ccc(CNC(=O)[C@@H]2C[C@@H](O)CN2C(=O)[C@@H](NC(=O)CCCOCC#CC#CCOc2ccc(N3C(=S)N(c4ccc(C#N)c(C(F)(F)F)c4)C(=O)C3(C)C)cc2)C(C)(C)C)cc1 ?
> 501 nM

Repeat for the following compound: Cc1ncsc1-c1ccc(CNC(=O)[C@@H]2C[C@@H](O)CN2C(=O)[C@@H](NC(=O)COCCOCCCOCCOc2ccc(N3C(=S)N(c4ccc(C#N)c(C(F)(F)F)c4)C(=O)C3(C)C)cc2)C(C)(C)C)cc1
< 50 nM

Repeat for the following compound: Cc1ncsc1-c1ccc(CNC(=O)[C@@H]2C[C@@H](O)CN2C(=O)[C@@H](NC(=O)COCCO[C@H](C)[C@@H](C)OCCOc2ccc(N3C(=S)N(c4ccc(C#N)c(C(F)(F)F)c4)C(=O)C3(C)C)cc2)C(C)(C)C)cc1
51 to 500 nM

Repeat for the following compound: Cc1ncsc1-c1ccc(CNC(=O)[C@@H]2C[C@@H](O)CN2C(=O)[C@@H](NC(=O)CCc2ccc(OCCOc3ccc(N4C(=S)N(c5ccc(C#N)c(C(F)(F)F)c5)C(=O)C4(C)C)cc3)cc2)C(C)(C)C)cc1
< 50 nM

Repeat for the following compound: Cc1ncsc1-c1ccc(CNC(=O)[C@@H]2C[C@@H](O)CN2C(=O)[C@@H](NC(=O)CCCOCCCOCCCOc2ccc(N3C(=S)N(c4ccc(C#N)c(C(F)(F)F)c4)C(=O)C3(C)C)cc2)C(C)(C)C)cc1
< 50 nM

Repeat for the following compound: Cc1ncsc1-c1ccc(CNC(=O)[C@@H]2C[C@@H](O)CN2C(=O)[C@@H](NC(=O)COCCCOCCCCCOc2ccc(N3C(=S)N(c4ccc(C#N)c(Cl)c4)C(=O)C3(C)C)cc2)C(C)(C)C)cc1
< 50 nM

Repeat for the following compound: Cc1ncsc1-c1ccc(CNC(=O)[C@@H]2C[C@@H](O)CN2C(=O)[C@@H](NC(=O)CCOCCCCCOc2ccc(-c3ccc(N4C(=S)N(c5ccc(C#N)c(C(F)(F)F)c5)C(=O)C4(C)C)cc3)cc2)C(C)(C)C)cc1
51 to 500 nM

Repeat for the following compound: Cc1ncsc1-c1ccc(CNC(=O)[C@@H]2C[C@@H](O)CN2C(=O)[C@@H](NC(=O)CCCCCOCCCCCOc2ccc(N3C(=S)N(c4ccc(C#N)c(C(F)(F)F)c4)C(=O)C3(C)C)cc2)C(C)(C)C)cc1
51 to 500 nM

Repeat for the following compound: Cc1ncsc1-c1ccc(CNC(=O)[C@@H]2C[C@@H](O)CN2C(=O)[C@@H](NC(=O)COCCCOc2ccc(-c3ccc(N4C(=S)N(c5ccc(C#N)c(C(F)(F)F)c5)C(=O)C4(C)C)cc3)cc2)C(C)(C)C)cc1
< 50 nM
